Below, each of the compounds is paired with its reported pEC50 value.
tested on: Vaccinia Copenhagen; assay: microbe, parasite or virus in culture; type: cell-based, vaccinia virus (VV); conditions: read-out: Vaccinia Copenhagen EC50
Where a name gives a salt, the structure may show the parent alone.
Bear in mind: pEC50 is minus log10 of a mol/L concentration; give just that figure.

>  <compound>
CCCCCCCCCCCCCCCCOP(=O)(O)COC(CO)Cn1ccc(N)nc1=O (centres unmarked) [HD-CDV, Hexadecyl Cidofovir, Sodium Salt]

>  <recorded-endpoint>
pEC50

>  <recorded-measurement>
5.51

$$$$

Request: Let me know recorded pEC50 for CCCCCCCCCCCCCCCCCCCCOP(=O)(O)CO[C@H](CO)Cn1ccc(N)nc1=O [EC-CDV, Eicosyl Cidofovir, Sodium Salt] , thanks.
Result: 5.80

----------
tested on: human foreskin fibroblast (HFF) cells
Counter-ions that a name gives are not always drawn.
Below, each of the compounds is paired with its reported CC50 value.

Solved entries:
>  <compound>
CCCCCCCCOP(=O)(O)CO[C@H](CO)Cn1ccc(N)nc1=O [O-CDV, Octyl Cidofovir, Sodium Salt]

>  <CC50>
> 100 µM

$$$$
>  <compound>
CCCCCCCCCCCCOP(=O)(O)CO[C@H](CO)Cn1ccc(N)nc1=O [DD-CDV, Dodecyl Cidofovir, Sodium Salt]

>  <CC50>
> 100 µM

$$$$

Turning now to a further record.
Request: Let me know recorded CC50 for CCCCCCCCCCCCCCCCCCCCCCCCOP(=O)(O)CO[C@H](CO)Cn1ccc(N)nc1=O [TC-CDV, Tetracosyl Cidofovir, Sodium Salt] , thanks.
Result: > 100 µM

----------
assay: in vitro; details: human
Below, each of the compounds is paired with its reported CC50 value.

>  <compound>
Nc1ccn(C[C@@H](CO)OCP(=O)(O)O)c(=O)n1 [CDV, Cidofovir, reference compound]

>  <recorded-measurement>
> 317 µM

$$$$

Turning now to a further record.
Request: Let me know recorded CC50 for Nc1ccn(C[C@H]2COP(=O)(O)CO2)c(=O)n1 [cCDV, Cyclic Cidofovir, reference compound] , thanks.
Result: > 331 µM

----------
Structures can show the parent of a compound that is named as a salt.
Entries with their measured CC50, system human foreskin fibroblast (HFF) cells:

>  <compound>
CCCCCCCCCCCCCCCCOP(=O)(O)COC(CO)Cn1ccc(N)nc1=O (stereo not drawn) [HD-CDV, Hexadecyl Cidofovir, Sodium Salt]

>  <experimental-target>
human foreskin fibroblast (HFF) cells

>  <CC50>
> 157 µM

$$$$
>  <compound>
CCCCCCCCCCCCCCCCCCCCCCCCOP1(=O)CO[C@@H](Cn2ccc(N)nc2=O)CO1 (stereo partly drawn)

>  <experimental-target>
human foreskin fibroblast (HFF) cells

>  <CC50>
> 100 µM

$$$$

Request: Let me know recorded CC50 for CCCCCCCCCCCCCCCCCCCCCCOP1(=O)COC(Cn2ccc(N)nc2=O)CO1 (mixture of isomers) , thanks.
Result: > 100 µM

----------
Below, each of the molecules is paired with its reported EC50 value.
system: Cowpox Brighton; experiment: microbe, parasite or virus in culture; assay type: cell-based, cowpox virus (CV); conditions: read-out: Cowpox Brighton EC50
Structures can show the parent of a compound that is named as a salt.

Solved entries:
>  <molecule>
CCCCCCCCOP(=O)(O)CO[C@H](CO)Cn1ccc(N)nc1=O [O-CDV, Octyl Cidofovir, Sodium Salt]

>  <EC50>
> 20 µM

$$$$
>  <molecule>
CCCCCCCCCCCCCCCCCCCCCCCCOP(=O)(O)CO[C@H](CO)Cn1ccc(N)nc1=O [TC-CDV, Tetracosyl Cidofovir, Sodium Salt]

>  <EC50>
> 20 µM

$$$$

Turning now to a further record.
Request: Let me know recorded EC50 for CCCCCCCCCCCCOP(=O)(O)CO[C@H](CO)Cn1ccc(N)nc1=O [DD-CDV, Dodecyl Cidofovir, Sodium Salt] , thanks.
Result: > 20 µM

----------
test system: Vaccinia Copenhagen; experiment: microbe, parasite or virus in culture; format: cell-based, vaccinia virus (VV); details: read-out: Vaccinia Copenhagen EC50
Where a name gives a salt, the structure may show the parent alone.
Below, each of the molecules is paired with its reported EC50 value.

>  <molecule>
CCCCCCCCOP(=O)(O)CO[C@H](CO)Cn1ccc(N)nc1=O [O-CDV, Octyl Cidofovir, Sodium Salt]

>  <experimental-target>
Vaccinia Copenhagen

>  <EC50>
> 20 µM

$$$$
>  <molecule>
CCCCCCCCCCCCCCCCCCCCCCCCOP(=O)(O)CO[C@H](CO)Cn1ccc(N)nc1=O [TC-CDV, Tetracosyl Cidofovir, Sodium Salt]

>  <experimental-target>
Vaccinia Copenhagen

>  <EC50>
> 17 µM

$$$$

Turning now to a further record.
Request: Let me know recorded EC50 for CCCCCCCCCCCCOP(=O)(O)CO[C@H](CO)Cn1ccc(N)nc1=O [DD-CDV, Dodecyl Cidofovir, Sodium Salt] , thanks.
Result: > 20 µM
